- testedTarget: fibrin (Homo sapiens, UniProt P02671+P02675+P02679)
- Construct: purchased Kabi Vitrum
- Sequence (P02671 20-644 isoform P02671-2 limits assumed): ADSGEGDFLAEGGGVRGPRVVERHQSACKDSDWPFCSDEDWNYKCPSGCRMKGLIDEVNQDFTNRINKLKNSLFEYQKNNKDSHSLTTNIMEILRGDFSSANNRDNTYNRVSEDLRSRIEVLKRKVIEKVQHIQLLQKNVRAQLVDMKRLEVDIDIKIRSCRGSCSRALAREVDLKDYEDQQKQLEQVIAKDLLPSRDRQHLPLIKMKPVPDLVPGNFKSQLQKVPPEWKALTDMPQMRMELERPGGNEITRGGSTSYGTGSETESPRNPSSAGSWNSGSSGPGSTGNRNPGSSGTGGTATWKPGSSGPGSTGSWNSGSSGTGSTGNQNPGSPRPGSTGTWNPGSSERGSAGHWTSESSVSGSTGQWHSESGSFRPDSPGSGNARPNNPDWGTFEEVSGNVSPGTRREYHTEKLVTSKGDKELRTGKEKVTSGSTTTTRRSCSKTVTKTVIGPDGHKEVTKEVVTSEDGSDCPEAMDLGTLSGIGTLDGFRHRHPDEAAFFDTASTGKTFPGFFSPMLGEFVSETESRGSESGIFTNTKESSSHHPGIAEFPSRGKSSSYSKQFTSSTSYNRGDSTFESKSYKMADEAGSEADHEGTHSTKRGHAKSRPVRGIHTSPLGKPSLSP
- Sequence (P02675 45-491 limits assumed): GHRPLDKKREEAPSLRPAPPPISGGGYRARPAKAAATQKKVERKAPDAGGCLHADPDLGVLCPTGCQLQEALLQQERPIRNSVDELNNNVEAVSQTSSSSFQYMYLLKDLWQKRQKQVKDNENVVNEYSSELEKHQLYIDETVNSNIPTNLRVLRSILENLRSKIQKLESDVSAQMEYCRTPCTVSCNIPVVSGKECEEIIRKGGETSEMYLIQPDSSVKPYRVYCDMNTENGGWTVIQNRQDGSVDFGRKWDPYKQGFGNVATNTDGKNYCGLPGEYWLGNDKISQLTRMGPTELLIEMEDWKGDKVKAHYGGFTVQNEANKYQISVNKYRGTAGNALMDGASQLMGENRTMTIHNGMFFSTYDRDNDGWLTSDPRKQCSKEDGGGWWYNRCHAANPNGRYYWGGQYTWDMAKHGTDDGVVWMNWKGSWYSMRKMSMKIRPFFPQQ
- Sequence (P02679 27-437 isoform P02679-2 limits assumed): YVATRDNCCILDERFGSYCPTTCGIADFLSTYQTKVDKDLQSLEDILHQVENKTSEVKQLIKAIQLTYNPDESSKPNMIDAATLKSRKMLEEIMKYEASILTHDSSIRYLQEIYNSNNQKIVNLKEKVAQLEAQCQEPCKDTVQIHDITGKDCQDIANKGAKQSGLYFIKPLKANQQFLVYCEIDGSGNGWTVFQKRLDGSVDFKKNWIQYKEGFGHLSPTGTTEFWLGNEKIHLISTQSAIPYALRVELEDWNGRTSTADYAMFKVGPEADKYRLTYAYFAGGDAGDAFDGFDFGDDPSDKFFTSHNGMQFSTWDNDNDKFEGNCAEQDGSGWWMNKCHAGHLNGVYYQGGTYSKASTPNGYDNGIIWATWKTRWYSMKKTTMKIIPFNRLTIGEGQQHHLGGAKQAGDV
- measurementDescription: Fibrin binding: binding of tPA to fibrin, tPA antigen in supernatant by ELISA
- conditionDetails: 15 μg/ml peptide; 200 ng/ml single chain melanoma tPA, 200 μg/ml human fibrinogen; no peptide = 48
Where no end group is shown, it is not given here.
experimentalReadout: % Bound (binding of tPA to fibrin) (%)
Numbers only; they are read as %.

Q: Param item = YPSSRCTSQHLLNRTVTDNMLCAGD-amide [Peptide 187, 25 amino acid synthetic peptide amide fragment of native human tPA] ; retrieve measured % Bound (binding of tPA to fibrin).
Result: 51

Q: Note, next up: EFCSTPACSEGNSDCYFGNGSAYRG [Peptide 160, 25 amino acid synthetic peptide fragment of native human tPA]
Result: 56

Q: Note, next up: QQHQSWLRPVLRSNRVEYCWCNSGR-amide (QQHQSWLRPVLRSNRVEYCWCNSGR-NH2; cysteine pairing not given here) [Peptide 145, 25 amino acid synthetic peptide amide fragment of native human tPA]
Result: 56

Q: Note, next up: TAESGAECTNWNSSALAQKPYSGRR-NH2 [Peptide 154]
Result: 56

Q: Note, next up: RRGARSYQVICRDEKTQMIYQQHQS [Peptide 143]
Result: 57

Q: Note, next up: PEGFAGKCCEIDTRATCYEDQGISY-amide (PEGFAGKCCEIDTRATCYEDQGISY-NH2; cysteine pairing not given here) [Peptide 151, 25 amino acid synthetic peptide amide fragment of native human tPA]
Result: 53

Provenance of the data: patent US5039791A
